System: SF-539
Assay: NCI tumour cell line growth inhibition, 48 h
Active and inactive are the calls of the source. Cut-off read from the data, not from the text of the source: active = GI50 up to about 1.1 µM and inactive = higher.
Result category, one only: active, inactive

Please state the recorded outcome for this compound: CC1CC(C)[C@H](O)C([C@H](O)CC2CC(=O)N(C)C(=O)C2)C1 (stereo not given in full) inactive

Status in this test for O=c1c2ccccc2nc(-c2cccc(Cl)c2)n1NC1OC(CO)C(O)C(O)C1O (stereo not given) ? inactive

For this compound, state the assay outcome: "O=C(/C=N/c1ccccc1[S-])c1ccco1.O=C(/C=N/c1ccccc1[S-])c1ccco1.[Zn+2]" inactive

Field: outcome | Entry: "CN(C)CCCNc1c2ccccc2nc2cccc([N+](=O)[O-])c12" active

For OCC1OC(NCCNCCNC2OC(CO)C(O)C(O)C2O)C(O)C(O)C1O (stereo not given) , what call appears in the results of this test? inactive

Assay outcome for "Cc1cccc(NC(=O)C(=O)Cc2nc3ccccc3nc2O)c1C" : what was it? inactive

// return assay outcome for CC(NNC(=O)c1cc[n+]([BH2-]C#N)cc1)c1cccc(F)c1 (stereo not given) inactive

Record lookup: outcome of this test for "O=[N+]([O-])c1ccc(/C=C/c2ccc(/N=N/c3ccc(/C=C/c4ccc([N+](=O)[O-])cc4S(=O)(=O)O)c(S(=O)(=O)O)c3)cc2S(=O)(=O)O)c(S(=O)(=O)O)c1" ? inactive

Tell me the assay call for "O=C(Cc1ccccc1)c1ccc2[nH]c(=O)oc2c1" please. inactive

Hi team, can someone confirm the assay call for "O=C(O)/C=C/C(=O)N1Cc2cc3ccccc3nc2C1" ? inactive

----------
Test system: A498
Assay: NCI tumour cell line growth inhibition, 48 h
Activity calls are given as the source filed them. No stated cut-off is given here; in the data, active = GI50 up to about 1.1 µM and inactive = higher.
Entry note: the call must match one of YES (active), NO (inactive)

Which result was noted for this compound in the test: COc1ccc2c(c1)C=C([N+](=O)[O-])C(C1OC(C)(C)OC1C1COC(C)(C)O1)O2 (centres undefined) NO

Lab log entry: "COc1ccc(OC)c(CCc2cc(OC)ccc2OC)c1" — outcome as called in the assay? NO

Could you please tell me the result logged for "Oc1ccc(N=C2CCC(=C(c3ccccc3)c3ccc(Nc4ccc(O)cc4)cc3)CC2)cc1" in this assay? NO

Any idea what this test logged for "CSc1c(C(=O)Nc2ccc(C)cc2)c(N)nn1-c1ccccc1" ? NO

Called result for "N#Cc1ccc(Oc2nc3ccc(C(F)(F)F)cc3nc2-c2ccccc2)cc1" NO

Which outcome was assigned to "CC[C@@H](C)[C@H]([C@H](CC(=O)N1CCC[C@@H]1[C@@H](OC)[C@H](C)C(=O)N[C@H](Cc1ccccc1)c1nccs1)OC)N(C)C(=O)[C@H](NC(=O)[C@@H](C(C)C)N(C)C)C(C)C" in this test? YES

For this compound, state the assay outcome: NCCC1([N+](=O)[O-])C=CN=CC1 (centres undefined) NO

Would you mind telling me which call this test gave "CCc1c(O)cc(=O)oc1-c1ccc(OC)c(OC)c1" ? NO

Test call for this compound, please: "COc1ccc2c(c1)CC[C@@H]1[C@@H]2CC[C@]2(C)/C(=N/OCCN3CCCCC3)CC[C@@H]12" NO

----------
Kindly state GI50 for each of the entries shown.
Test system: NCI-H226
Experiment: NCI tumour cell line growth inhibition, 48 h
Active and inactive are the calls of the source. No stated cut-off is given here; in the data, active = GI50 up to about 1.1 µM and inactive = higher. *1 amine or outer side, *2 acyl side, *3 side chain or, on linkers, in order; H or OH if unused. Where a SMILES comes first, the peptide text is derived from it. [ ]: non-standard residue; d: D form. The star is where a group is joined. ξ: configuration not given here. X26 = O=C([C@H]1CCC[C@H]1N[*:1])[*:2]; ξW = NC(Cc1c[nH]c2ccccc12)C(=O)O; ξF = NC(Cc1ccccc1)C(=O)O; Boc = CC(C)(C)OC(=O)*; ξK = NCCCCC(N)C(=O)O; ξT = CC(O)C(N)C(=O)O; tBu = CC(C)(C)*

I'd like to know its GI50. The molecule in question is "COc1ccccc1CNCc1nc2ccccc2[nH]1" > 100 µM (inactive)

Any idea what its GI50 is? The molecule is CC(OC(C)(C)C)C1NC(=O)C(CCCCNC(=O)OC(C)(C)C)NC(=O)C(Cc2c[nH]c3ccccc23)NC(=O)C(Cc2ccccc2)NC(=O)[C@H]2CCC[C@H]2NC(=O)C(Cc2ccccc2)NC1=O (stereo not given in full) (cyclo([X26][ξF][ξW][ξK](Boc)[ξT](tBu)[ξF])) 39.2 µM (inactive)

Fill in the blank: the reported GI50 of CN1CCCC2[C@@H]3CCC4c5nonc5CC[C@]4(C)C3CC[C@@]21C (stereo not given in full) is ____. > 100 µM (inactive)

Record request: GI50 value, item CC(NC(=O)C1CCCN1C(=O)CNC(=O)OC(C)(C)C)C(=O)O (stereo not drawn) (Boc-Gly-Pro-Ala-OH; configuration not given here) > 100 µM (inactive)

Field request: GI50 | item: O=C1N=C(c2ccccc2)OC1C(=O)c1ccccc1 (stereo not given) > 100 µM (inactive)

Which GI50 is listed for COc1ccc2c(c1)C(=O)CC1c3cnccc3C(=O)N21 (stereo not given) ? > 100 µM (inactive)

Entry CCCCCCCCCCCCCCCCCCOCC(COP(=O)([O-])OCC[N+](C)(C)C)OC (stereo not given) [EDELFOSINE] has what GI50? 26.4 µM (inactive)

# input molecule: "O=C1OC[C@@H]2[C@@H](O)CCCCCN12" ; wanted: its GI50 > 100 µM (inactive)

// returns reported GI50 for input "CC(C)(C)OC(=O)CN1CCNCCN(CC(=O)OC(C)(C)C)CCNCC1" > 100 µM (inactive)

Entry under review: "c1csc(-c2ccsc2-c2ccsc2)c1" . Reported GI50? 0.0264 µM (active)

Look at this molecule and give its reported GI50. "N#Cc1cnc(-n2[nH]c3c(c2=O)CCCC3)[nH]c1=O" 47.8 µM (inactive)

Which GI50 is reported for this molecule? "Cc1cc(N(CCC#N)CCC#N)ccc1/C=C1\SC(=S)NC1=O" > 100 µM (inactive)

Please give the measured GI50 for this molecule: "N#CCCN(c1ccc(/C=N/c2ccccc2)cc1)S(=O)(=O)c1ccccc1" > 100 µM (inactive)

Need GI50, item CCCC1CCC(=C2C(=O)CCC2=O)O1 (stereo not given) > 100 µM (inactive)

Find the recorded GI50 belonging to N#Cc1cccc(C2ON=C(c3ccc([N+](=O)[O-])cc3)N2C23CC4CC(CC(C4)C2)C3)c1 (stereo not given) and report it. > 100 µM (inactive)

Param item = CCSC(=O)N1c2ccc(OC)cc2C=CC1C#N (stereo not given) ; retrieve measured GI50. 0.00759 µM (active)

What value of GI50 has been reported for the following molecule? "O=C(Nc1cccc([N+](=O)[O-])c1)c1nnn(-c2cccc([N+](=O)[O-])c2)c1O" > 100 µM (inactive)

Query (molecule): COC1(C)CC2N(C(=O)c3ccccc3)N=C(c3ccccc3)CC2(C)O1 (stereo not given) ; field requested: GI50 > 100 µM (inactive)

Could you tell me which GI50 is on file for "NNC(=O)c1c(SCc2ccccc2)nc2c3ccccc3ccn12" ? 22.1 µM (inactive)

Look at this molecule and give its reported GI50. O=C(C1OC1c1ccc([N+](=O)[O-])cc1)C12CC3CC(CC(C3)C1)C2 (stereo not given) 17.2 µM (inactive)
